Molecular target: T1, ZFP SBS#745 (synthetic)
T1 chain: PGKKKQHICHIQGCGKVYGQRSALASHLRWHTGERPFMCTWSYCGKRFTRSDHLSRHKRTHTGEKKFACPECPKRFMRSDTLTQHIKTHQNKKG
Assay: EMSA
Conditions: tags: MBP fusion
Property Label: Kd (nM)
Kindly answer with a numeric value in nM, unit omitted.

Exercise: Look up Kd of ACGGGGTTAT (dsDNA) DNA 1: ACGGGGTTAT DNA 2: ATAACCCCGT and report it.
Key: 12.5

Reference source: patent US20030068675
